- experimental target: Nociceptin receptor (Homo sapiens, UniProt P41146)
- Sequence (P41146 whole entry): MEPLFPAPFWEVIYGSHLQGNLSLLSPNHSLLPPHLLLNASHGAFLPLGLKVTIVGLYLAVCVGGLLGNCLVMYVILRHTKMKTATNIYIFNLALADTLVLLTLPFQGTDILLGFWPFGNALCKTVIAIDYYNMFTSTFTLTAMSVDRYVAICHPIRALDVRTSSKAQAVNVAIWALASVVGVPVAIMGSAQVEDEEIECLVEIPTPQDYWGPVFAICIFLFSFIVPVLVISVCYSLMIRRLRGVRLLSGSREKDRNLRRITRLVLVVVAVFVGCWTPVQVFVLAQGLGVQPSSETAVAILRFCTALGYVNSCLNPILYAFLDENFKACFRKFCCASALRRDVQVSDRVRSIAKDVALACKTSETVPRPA
- assay info: Antagonist activity on nociceptin-induced [35S]GTP-gamma-S binding to ORL1 expressed in CHO cells
- Assay type: functional, cell-based
measured quantity: IC50 (nM)

Worked examples, 2 molecules total:
INSERT INTO assay_data (smiles_string, test_value) VALUES
  ('O=C(NCCCN1CCC2(CCc3ccccc32)CC1)[C@@H](O)Cc1ccccc1', 7.5),
  ('O=C(NCCCN1CCC2(CC1)OCc1ccccc12)[C@H]1CCCN1Cc1ccccc1', 0.15);

a: O=C(NCCCN1CCC2(CCc3ccccc32)CC1)c1ccccc1Oc1ccccc1
b: O=C(NCCCN1CCC2(CCc3ccccc32)CC1)[C@H]1CCCN1Cc1ccccc1
c: O=C(NCCCN1CCC2(CCc3ccccc32)CC1)[C@@H]1CCCN1Cc1ccccc1
d: O=C(NCCCN1CCC2(CCc3ccccc32)CC1)c1ccccc1-c1ccccc1
e: O=C(NCCCN1CCC2(CCc3ccccc32)CC1)c1ccccc1OCc1ccccc1
Query: List items by IC50 in falling order. Returns: the labels arranged in the requested order.
Response: e, c, d, a, b
(e: 110 nM, c: 42 nM, d: 8.3 nM, a: 4 nM, b: 0.12 nM)
